# key: entry, value: pEC50
Target: TcSir2rp3 (Trypanosoma cruzi, UniProt Q4E5B9, K2R)
Sequence (Q4E5B9 whole entry K2R): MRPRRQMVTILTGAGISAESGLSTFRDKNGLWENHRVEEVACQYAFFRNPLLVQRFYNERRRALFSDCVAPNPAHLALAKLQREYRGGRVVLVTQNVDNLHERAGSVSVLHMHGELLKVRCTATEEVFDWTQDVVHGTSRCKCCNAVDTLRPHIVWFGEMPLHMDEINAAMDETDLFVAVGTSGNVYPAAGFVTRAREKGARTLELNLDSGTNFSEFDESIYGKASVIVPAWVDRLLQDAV
Assay: TcSir2rp3 deacetylase activity assay (fluorogenic peptide, NAD+)
# pEC50 is unitless: minus log10 of the molar concentration; print number only

CCCCCC/C=C\CCCCCCCc1cccc(O)c1C(=O)O    5.13

Now for the compound whose pEC50 we want.
// query Quick one: pEC50 of `CCC/C=C\C/C=C\CCCCCCCc1cccc(O)c1C(=O)O` ?
// result 5.22

====

System: amastigote forms of T. cruzi in infected hFIB
Assay: In vitro drug combination of compound 2 and benznidazole in infected hFIB (Chou-Talalay CI)
Type: cell-based
Conditions: Trypanosoma cruzi, 72 h, read-out: EC50 ± SD, alone
metric: pEC50
# pEC50 is unitless: minus log10 of the molar concentration; print number only

// query Quick one: pEC50 of O=C(Cn1ccnc1[N+](=O)[O-])NCc1ccccc1 [Benznidazole, reference compound] ?
// result 5.66

All figures here come from paper PMC6479711.
